Measured property: IC50 (µM)
Note: unit µM is implicit; provide only the numeric part.

Qu. # return IC50 for CC(=O)N[C@@H]1CCN(c2n[nH]c3nccc(-c4ccc([C@@H](C)NC(=O)c5cc(C(C)(C)O)on5)c(F)c4)c23)C1 [Example 349] , test system: TEC (Homo sapiens)
Sequence (P42680 whole entry): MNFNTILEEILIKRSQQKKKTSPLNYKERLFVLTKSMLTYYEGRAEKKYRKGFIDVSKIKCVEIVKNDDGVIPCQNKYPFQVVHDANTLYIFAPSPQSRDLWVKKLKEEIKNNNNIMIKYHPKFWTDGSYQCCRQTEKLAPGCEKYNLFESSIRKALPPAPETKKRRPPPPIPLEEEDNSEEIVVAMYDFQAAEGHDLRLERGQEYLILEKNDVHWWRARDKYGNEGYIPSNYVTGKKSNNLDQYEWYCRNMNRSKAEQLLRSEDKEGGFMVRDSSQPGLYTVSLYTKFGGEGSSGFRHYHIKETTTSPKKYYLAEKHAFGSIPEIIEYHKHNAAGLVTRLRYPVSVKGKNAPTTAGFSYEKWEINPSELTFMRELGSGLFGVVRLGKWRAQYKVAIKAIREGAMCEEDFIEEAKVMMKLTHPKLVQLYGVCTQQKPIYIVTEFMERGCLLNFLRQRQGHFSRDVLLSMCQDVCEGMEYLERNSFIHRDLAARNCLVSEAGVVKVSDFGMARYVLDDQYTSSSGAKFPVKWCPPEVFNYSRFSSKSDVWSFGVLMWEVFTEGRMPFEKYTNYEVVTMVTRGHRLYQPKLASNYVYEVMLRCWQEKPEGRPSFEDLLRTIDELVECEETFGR
Ans. 1.48

Qu. # return IC50 for CC(C)c1nc(C(=O)NCc2ccc(-c3ccnc4[nH]nc(N5CC[C@@H](N)C5)c34)cc2F)no1 [Example 370] , test system: TEC (Homo sapiens)
Ans. 3.88

Qu. # return IC50 for C[C@H]1CC[C@@H](Nc2n[nH]c3nccc(-c4ccc(CN5CCn6c(cc7c6CCCC7)C5=O)c(F)c4)c23)CN1C(=O)N(C)C [Example 240] , test system: TEC (Homo sapiens)
Ans. 5.03

Qu. # return IC50 for C=CC(=O)N1CC=C(c2n[nH]c3nccc(-c4ccc(CNC(=O)c5noc(C(C)(C)C)n5)c(F)c4)c23)C1 [Example 281] , test system: TEC (Homo sapiens)
Ans. 0.00492

Qu. # return IC50 for C=CC(=O)N1CC[C@@H](Nc2n[nH]c3nccc(-c4ccc(CNC(=O)c5cc6c(n5C)CC(C)(C)C6)c(F)c4)c23)C1 [Example 158] , test system: TEC (Homo sapiens)
Ans. 0.394

Qu. # return IC50 for CC(C)(C)c1cc(C(=O)NCc2ccc(-c3ccnc4[nH]nc(N5CC[C@@H](N)C5)c34)cc2F)no1 [Example 307] , test system: TEC (Homo sapiens)
Ans. 3.21

Qu. # return IC50 for Cc1ccc(C(=O)NCc2ccc(-c3ccnc4[nH]nc(N[C@@H]5CCNC5)c34)cc2F)cc1 [Compound 32] , test system: TEC (Homo sapiens)
Ans. 5.44

Qu. # return IC50 for C=CC(=O)N1CC[C@@H](Nc2n[nH]c3nccc(-c4ccc(CNC(=O)c5ccc(C(=C)C)cc5)c(F)c4)c23)C1 [Compound 47] , test system: TEC (Homo sapiens)
Ans. 2.94

Qu. # return IC50 for C=CC(=O)N1CC[C@@H](Nc2n[nH]c3nccc(-c4ccc(CNC(=O)c5nnc(C(C)(C)C)o5)c(F)c4)c23)C1 [Example 81] , test system: TEC (Homo sapiens)
Ans. 0.131

Qu. # return IC50 for C=CC(=O)N1CC[C@@H](Nc2n[nH]c3nccc(-c4ccc(CNC(=O)c5ccc(C(F)(F)F)cc5)c(F)c4)c23)C1 [Compound 48] , test system: TEC (Homo sapiens)
Ans. 0.065

Qu. # return IC50 for C=CC(=O)N1CC[C@@H](Nc2n[nH]c3nccc(-c4ccc(C(C)(C)NC(=O)c5noc(C(C)(C)C)n5)cc4)c23)C1 [Example 134] , test system: TEC (Homo sapiens)
Ans. 0.348
